# experimentSummary: A CellTox Green Cytotoxicity Assay to monitor cytotoxicity in HEK293 cells - 16 hour (AID 1224888); note: nearly all actives have a fitted effect of over 35% in size
# experimentalSetup: CellTox Green fluorescence; series mostly up to 76.8 µM
Results filed as inconclusive are left out. Activity calls are given as the source filed them. Calls come from the whole dose curve; as a rule, active = well fitted activation curve with a large enough effect in the repeat runs; inconclusive = weak or mixed curves; inactive = flat fitted curve, though single readings scatter.
Classes used: label 1 for active, label 0 for inactive

INSERT INTO results (smilesrecord, classification) VALUES
  ('O=C(O)c1cc(O)c2c(c1)C(=O)c1cccc(O)c1C2=O', 'label 0'),
  ('CCc1oc2ccccc2c1C(=O)c1cc(Br)c(O)c(Br)c1', 'label 0'),
  ('COc1cccc2c1C(=O)c1c(O)c3c(c(O)c1C2=O)C[C@@](O)(C(=O)CO)C[C@@H]3O[C@H]1C[C@H](N)[C@H](O[C@@H]2CCCCO2)[C@H](C)O1', 'label 0'),
  ('Cc1ccc(-n2nc(C(C)(C)C)cc2NC(=O)Nc2ccc(OCCN3CCOCC3)c3ccccc23)cc1', 'label 0'),
  ('CCCCCCCCCCCCc1ccc(O)cc1', 'label 1');

* * *

# experimentSummary: qHTS assay to identify small molecule antagonists of the estrogen related receptor (ERR) signaling pathway from Tox21 library (AID 1224848); note: nearly all actives have a fitted effect of over 50% in size
# experimentalSetup: ERR reporter cell line, luciferase antagonist mode, 18 h; series mostly up to 92.4 µM
Results filed as inconclusive are left out. Active and inactive are the calls of the source. Calls follow the shape of the dose curve; as a rule, active = well fitted inhibition curve with a large enough effect in the repeat runs; inconclusive = weak or mixed curves; inactive = no such curve, though single readings can be large or run the other way.
Classes used: active, inactive

INSERT INTO results (molecule, classification) VALUES
  ('CNCc1cc(F)ccc1Oc1ccc(Cl)c(Cl)c1', 'active'),
  ('C1CCCC1', 'inactive'),
  ('CCCCCCCCCCCCc1ccc(O)cc1', 'active'),
  ('CCCCCCCC/C=C/CCCCCCCC1=NCCN1CCO', 'active'),
  ('N/C(=N\N=C\c1ccc(Cl)cc1)N/N=C/c1ccc(Cl)cc1', 'active'),
  ('CCOc1nc2cccc(C(=O)OC(C)OC(=O)OC3CCCCC3)c2n1Cc1ccc(-c2ccccc2-c2nn[nH]n2)cc1 (stereo not given)', 'active'),
  ('Fc1ccc(C(c2ccc(F)cc2)N2CCN(C/C=C/c3ccccc3)CC2)cc1', 'active'),
  ('CC(C)(C)C(=O)OCOC(=O)[C@@H]1N2C(=O)[C@@H](NC(=O)[C@H](N)c3ccccc3)[C@H]2SC1(C)C', 'inactive'),
  ('Cc1cc(N)c(S(=O)(=O)O)cc1Cl', 'inactive'),
  ('CCCCc1oc2ccc(NS(C)(=O)=O)cc2c1C(=O)c1ccc(OCCCN(CCCC)CCCC)cc1', 'active');

* * *

# experimentSummary: qHTS assay for identifying genotoxic compounds that show differential cytotoxicity against isogenic chicken DT40 cell lines with known DNA damage response pathways - Rev3 mutant cell line (AID 743014); note: nearly all actives have a fitted effect of over 55% in size
# experimentalSetup: chicken DT40 Rev3-/- viability, CellTiter-Glo, 40 h; series mostly up to 68.4 µM
Results filed as inconclusive are left out. Active and inactive are the calls of the source. Calls come from the whole dose curve; as a rule, active = well fitted cell-killing curve with a large enough effect in the repeat runs; inconclusive = weak or mixed curves, or effect the other way; inactive = no such curve, though single readings can be large or run the other way.
Classes used: active, inactive

INSERT INTO measurements (molecule, classification) VALUES
  ('Oc1c(Cl)cc(Cl)c2cccnc12', 'active'),
  ('CCN(CC)CCNC(=O)c1c(C)[nH]c(/C=C2\C(=O)Nc3ccc(F)cc32)c1C', 'active'),
  ('N=C1C=CC(=C(c2ccc(N)cc2)c2ccc(N)cc2)C=C1', 'active'),
  ('Cc1cc(CCN2CCN(c3nsc4ccccc34)CC2)cc2c1NC(=O)CC2(C)C', 'active'),
  ('CCCCCCCCOC(=O)c1ccc(O)cc1', 'active'),
  ('NNC(=O)c1cccc(C(=O)NN)c1', 'inactive'),
  ('CCN(CC)CCCC(C)Nc1c2ccc(Cl)cc2nc2ccc(OC)cc12 (centres undefined)', 'active'),
  ('O=C(N/N=C/c1ccccc1O)c1ccncc1', 'active'),
  ('O=C(NO)C1(NS(=O)(=O)c2ccc(Oc3ccc(F)cc3)cc2)CCOCC1', 'active'),
  ('CCCCCCCCCCCCc1ccc(O)cc1', 'active'),
  ('Cc1onc(-c2c(Cl)cccc2Cl)c1C(=O)N[C@@H]1C(=O)N2[C@@H]1SC(C)(C)[C@@H]2C(=O)O', 'inactive'),
  ('CCOC(=O)O[C@]1(C(=O)OCCl)CC[C@H]2[C@@H]3CCC4=CC(=O)C=C[C@]4(C)[C@H]3[C@@H](O)C[C@@]21C', 'inactive'),
  ('C[n+]1cc2c3c(ccc2c2ccc4cc5c(cc4c21)OCO5)OCO3', 'active'),
  ('CCCCN(CCCC)C(=O)N(CCCC)CCCC', 'inactive');
